Test system: 422866-222-R5-J1-PDC complex spheroid viability
Experiment: Anticancer human tumor 422866-222-R5-J1-PDC patient-derived pancreatic adenocarcinoma cell line growth inhibition [POLQ]
Settings: second compound 0.1 µM; first compound 1 µM; stronger effect = lower value
Experimental: Multicellular complex tumor spheroid response to Polymerase (POL) inhibitors (novobiocin, ART-558, RP6685) in combination with a variety of drugs and investigational agents in selected tumor cell lines The POL inhibitors (novobiocin, ART-558, and RP6685) were evaluated both individually and in combination with standard of care and investigational anticancer small molecules within a complex spheroid model of solid tumors. . […]
Provide the reported viability, T/C of each item.
Answers are plain numbers, in %.

{"columns": ["Compound", "Assayed system", "Units label", "viability, T/C"],
 "data": [
  ["C=CC(=O)N1CCN(c2nc(=O)n(-c3c(C)ccnc3C(C)C)c3nc(-c4c(O)cccc4F)c(F)cc23)C(C)C1 (stereo not drawn) + Cc1cccc(N(C)C(=O)C2C(O)CCN2c2nc(C)cc(C(F)(F)F)c2C#N)c1", "422866-222-R5-J1-PDC complex spheroid viability", "%", 23.5],
  ["CCc1cc2c(N3CCc4c(cc(Cn5ccnc5)cc4-c4cn(C)nc4C(F)(F)F)C3=O)ccnc2c(OC)n1 + Nc1ccc(C#CCN(C(=O)Cc2ncc(C(F)(F)F)cc2C(F)(F)F)c2ccc(F)cc2)nn1", "422866-222-R5-J1-PDC complex spheroid viability", "%", 109]
]}

Give measured viability, T/C for every item shown.
1. COc1cccc(OCCCN)c1-c1cc(Nc2cnc(C#N)cn2)n[nH]1 + COC1C(OC(N)=O)C(O)C(Oc2ccc3c(O)c(NC(=O)c4ccc(O)c(CC=C(C)C)c4)c(=O)oc3c2C)OC1(C)C
2. CCc1cc2c(N3CCc4c(cc(Cn5ccnc5)cc4-c4cn(C)nc4C(F)(F)F)C3=O)cc(C)nc2c(OC)n1 + COC1C(OC(N)=O)C(O)C(Oc2ccc3c(O)c(NC(=O)c4ccc(O)c(CC=C(C)C)c4)c(=O)oc3c2C)OC1(C)C
3. COc1cc(C2c3cc4c(cc3C(OC3OC5COC(C)OC5C(O)C3O)C3COC(=O)C23)OCO4)cc(OC)c1O (stereo not drawn) + Nc1ccc(C#CCN(C(=O)Cc2ncc(C(F)(F)F)cc2C(F)(F)F)c2ccc(F)cc2)nn1
4. CC1COCCN1c1cc(C2(O)CC3CCC(C2)O3)c2cnn(-c3ccn[nH]3)c2n1 (stereo not drawn) + Cc1cccc(N(C)C(=O)C2C(O)CCN2c2nc(C)cc(C(F)(F)F)c2C#N)c1
5. COc1cccc2c1C(=O)c1c(O)c3c(c(O)c1C2=O)CC(O)(C(=O)CO)CC3OC1CC(N)C(O)C(C)O1 (stereo not drawn) + Nc1ccc(C#CCN(C(=O)Cc2ncc(C(F)(F)F)cc2C(F)(F)F)c2ccc(F)cc2)nn1
6. C#Cc1c(F)ccc2cc(O)cc(-c3ncc4c(N5CC6CCC(C5)N6)nc(OCC56CCCN5CC(F)C6)nc4c3F)c12 (stereo not drawn) + COC1C(OC(N)=O)C(O)C(Oc2ccc3c(O)c(NC(=O)c4ccc(O)c(CC=C(C)C)c4)c(=O)oc3c2C)OC1(C)C
7. C=CC(=O)N1CCN(c2nc(=O)n(-c3c(C)ccnc3C(C)C)c3nc(-c4c(O)cccc4F)c(F)cc23)C(C)C1 (stereo not drawn) + Nc1ccc(C#CCN(C(=O)Cc2ncc(C(F)(F)F)cc2C(F)(F)F)c2ccc(F)cc2)nn1
8. O=C(c1cc(Cc2n[nH]c(=O)c3ccccc23)ccc1F)N1CCN(C(=O)C2CC2)CC1 + Cc1cccc(N(C)C(=O)C2C(O)CCN2c2nc(C)cc(C(F)(F)F)c2C#N)c1

[42.6, 126, 46.4, 79.2, 33.3, 46.1, 25.7, 87.4]

// each listed compound needs a value for viability, T/C
1. CC1COCCN1c1cc(C2(O)CC3CCC(C2)O3)c2cnn(-c3ccn[nH]3)c2n1 (stereo not drawn) + COC1C(OC(N)=O)C(O)C(Oc2ccc3c(O)c(NC(=O)c4ccc(O)c(CC=C(C)C)c4)c(=O)oc3c2C)OC1(C)C
2. O=c1[nH]cc(F)c(=O)[nH]1 + Cc1cccc(N(C)C(=O)C2C(O)CCN2c2nc(C)cc(C(F)(F)F)c2C#N)c1
3. CC1COCCN1c1cc(C2(O)CC3CCC(C2)O3)c2cnn(-c3ccn[nH]3)c2n1 (stereo not drawn) + Nc1ccc(C#CCN(C(=O)Cc2ncc(C(F)(F)F)cc2C(F)(F)F)c2ccc(F)cc2)nn1

1: 65.3; 2: 90.8; 3: 71.6

Below are some compounds; for each one, tell me its viability, T/C.
1. C#Cc1c(F)ccc2cc(O)cc(-c3ncc4c(N5CC6CCC(C5)N6)nc(OCC56CCCN5CC(F)C6)nc4c3F)c12 (stereo not drawn) + Cc1cccc(N(C)C(=O)C2C(O)CCN2c2nc(C)cc(C(F)(F)F)c2C#N)c1
2. Nc1ccn(C2OC(CO)C(O)C2(F)F)c(=O)n1 (stereo not drawn) + Cc1cccc(N(C)C(=O)C2C(O)CCN2c2nc(C)cc(C(F)(F)F)c2C#N)c1
3. C=CCn1c(=O)c2cnc(Nc3ccc(N4CCN(C)CC4)cc3)nc2n1-c1cccc(C(C)(C)O)n1 + COC1C(OC(N)=O)C(O)C(Oc2ccc3c(O)c(NC(=O)c4ccc(O)c(CC=C(C)C)c4)c(=O)oc3c2C)OC1(C)C
4. CC(C)n1c(=O)n(C)c2cnc3cc(F)c(-c4ccc(OCCCN5CCCCC5)nc4)cc3c21 + Nc1ccc(C#CCN(C(=O)Cc2ncc(C(F)(F)F)cc2C(F)(F)F)c2ccc(F)cc2)nn1
5. COc1cc(C2c3cc4c(cc3C(OC3OC5COC(C)OC5C(O)C3O)C3COC(=O)C23)OCO4)cc(OC)c1O (stereo not drawn) + COC1C(OC(N)=O)C(O)C(Oc2ccc3c(O)c(NC(=O)c4ccc(O)c(CC=C(C)C)c4)c(=O)oc3c2C)OC1(C)C

1. 54.6
2. 38.6
3. 34.5
4. 88.3
5. 49.3

---

Tested on: 422866-222-R5-J1-PDC complex spheroid viability
Assay: Anticancer human tumor 422866-222-R5-J1-PDC cell line growth inhibition [POLQ];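 further: spheroids exposed to compounds for one week before readout; percent of DMSO vehicle wells luminescence so 100% = untreated viability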
Conditions: second compound 0.1 µM; first compound 10 µM; stronger effect = lower value
Experimental: Multicellular complex tumor spheroid response to Polymerase (POL) inhibitors (novobiocin, ART-558, RP6685) in combination with a variety of drugs and investigational agents in selected tumor cell lines The POL inhibitors (novobiocin, ART-558, and RP6685) were evaluated both individually and in combination with standard of care and investigational anticancer small molecules within a complex spheroid model of solid tumors. . […]
Metric: viability, T/C (%)
Answers are plain numbers, in %.

{"columns": ["Compound", "Units label", "viability, T/C"],
 "data": [
  ["COc1cc(C2c3cc4c(cc3C(OC3OC5COC(C)OC5C(O)C3O)C3COC(=O)C23)OCO4)cc(OC)c1O (stereo not drawn) + COC1C(OC(N)=O)C(O)C(Oc2ccc3c(O)c(NC(=O)c4ccc(O)c(CC=C(C)C)c4)c(=O)oc3c2C)OC1(C)C", "%", 36.4]
]}

For each of the compounds below, state viability, T/C.
1. CC1COCCN1c1cc(C2(O)CC3CCC(C2)O3)c2cnn(-c3ccn[nH]3)c2n1 (stereo not drawn) + Cc1cccc(N(C)C(=O)C2C(O)CCN2c2nc(C)cc(C(F)(F)F)c2C#N)c1
2. CCCS(=O)(=O)Nc1ccc(F)c(C(=O)c2c[nH]c3ncc(-c4ccc(Cl)cc4)cc23)c1F + Cc1cccc(N(C)C(=O)C2C(O)CCN2c2nc(C)cc(C(F)(F)F)c2C#N)c1

1: 72.2; 2: 102

---

Kindly supply the reported viability, T/C values for the records listed here.
System: 422866-222-R5-J1-PDC complex spheroid viability
Experiment: Anticancer human tumor 422866-222-R5-J1-PDC cell line growth inhibition [POLQ];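 further: spheroids exposed to compounds for one week before readout; percent of DMSO vehicle wells luminescence so 100% = untreated viability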
Conditions: second compound 10 µM; first compound 10 µM; stronger effect = lower value
Answers are plain numbers, in %.

{"columns": ["Compound", "Assayed system", "viability, T/C / %"],
 "data": [
  ["CCc1cc2c(N3CCc4c(cc(Cn5ccnc5)cc4-c4cn(C)nc4C(F)(F)F)C3=O)ccnc2c(OC)n1 + Nc1ccc(C#CCN(C(=O)Cc2ncc(C(F)(F)F)cc2C(F)(F)F)c2ccc(F)cc2)nn1", "422866-222-R5-J1-PDC complex spheroid viability", 106],
  ["COc1ccc([C@@H](O)c2cc(-c3ncnc4cc(N5CCOCC5)ccc34)c(F)cc2Cl)nn1 + Cc1cccc(N(C)C(=O)C2C(O)CCN2c2nc(C)cc(C(F)(F)F)c2C#N)c1", "422866-222-R5-J1-PDC complex spheroid viability", 37.6],
  ["O=c1[nH]cc(F)c(=O)[nH]1 + Nc1ccc(C#CCN(C(=O)Cc2ncc(C(F)(F)F)cc2C(F)(F)F)c2ccc(F)cc2)nn1", "422866-222-R5-J1-PDC complex spheroid viability", 83.8],
  ["CC(C)n1c(=O)n(C)c2cnc3cc(F)c(-c4ccc(OCCCN5CCCCC5)nc4)cc3c21 + COC1C(OC(N)=O)C(O)C(Oc2ccc3c(O)c(NC(=O)c4ccc(O)c(CC=C(C)C)c4)c(=O)oc3c2C)OC1(C)C", "422866-222-R5-J1-PDC complex spheroid viability", 32.6]
]}

For the compound O=C(c1cc(Cc2n[nH]c(=O)c3ccccc23)ccc1F)N1CCN(C(=O)C2CC2)CC1 + COC1C(OC(N)=O)C(O)C(Oc2ccc3c(O)c(NC(=O)c4ccc(O)c(CC=C(C)C)c4)c(=O)oc3c2C)OC1(C)C , report viability, T/C. 27.8
